Values were extracted from patent US20230348362A1.

Each item that follows carries a reported Encapsulation Efficiency.
- assayText: Encapsulation efficiency of lipid nanoparticles, Quant-it Ribogreen RNA assay
- Type: physicochemical
- condition: LNP of lipid/DSPC/cholesterol/PEG-lipid 50:10:38.5:1.5 encapsulating hEPO mRNA
Give just the number in %; leave the unit off.

Check out these entries, answers already filled in.
{"columns": ["molecule", "measurement"],
 "data": [
  ["CCCCCCCCC(CCCCCCCC)COC(=O)CCCCCN(CCNc1c(N(C)C)c(=O)c1=O)CCN(CCCCCC(=O)OCC(CCCCCCCC)CCCCCCCC)C1CCC1 [Compound 85]", 93.27],
  ["CCCCCCCCCCCOC(=O)CCCCCN(CCN(CCO)CCCCCC(=O)OCC(CCCCCC)CCCCCCCC)C1CCCCC1 (stereo not drawn) [Compound 6]", 87.7]
]}

Would you kindly look at the next entry?
GET /value?item= CCCCCCCCC(CCCCCCCC)COC(=O)CCCCCN(CCNc1c(NC)c(=O)c1=O)CCN(CCCCCC(=O)OCC(CCCCCCCC)CCCCCCCC)C1CCC1 [Compound 81] &field=Encapsulation Efficiency returns 91.82

* * *

- assayText: Lipid nanoparticle size and polydispersity by dynamic light scattering
- Format: physicochemical
- condition: LNP of lipid/DSPC/cholesterol/PEG-lipid 50:10:38.5:1.5 encapsulating hEPO mRNA
Rule: condition met for polydispersity not less than 0.07, condition not met for anything less.

*Q* Quick check, polydispersity >= 0.07? CCCCCCCCCCCOC(=O)CCCCCN(CCN(CCO)CCCCCC(=O)OCC(CCCCCCCC)CCCCCCCC)C1CCC1 [Compound 106]
*A* condition not met

*Q* Quick check, polydispersity >= 0.07? CCCCCCCCCCCOC(=O)CCCCCN(CCN(CCO)CCCCCOC(=O)N(CCCCCCCC)CCCCCCCC)C1CCCCC1 [Compound 99]
*A* condition met

*Q* Quick check, polydispersity >= 0.07? CCCCCCCCC(CCCCCCCC)COC(=O)CCCCCN(CCO)CCN(CCCCCC(=O)OCC(CCCCCCCC)CCCCCCCC)Cc1ccc([N+](=O)[O-])cc1 [Compound 38]
*A* condition met

*Q* Quick check, polydispersity >= 0.07? CCCCCCCCCCCC(=O)NCCCCCN(CCN(CCO)CCCCCNC(=O)CC(CCCCCCCC)CCCCCCCC)C1CCCCC1 [Compound 58]
*A* condition met

*Q* Quick check, polydispersity >= 0.07? CCCCCCCCC(CCCCCC)CNC(=O)CCN(CCO)CCN(CCCCC(COC(=O)CCCCCCC)COC(=O)CCCCCCC)C1CCCCC1 (stereo not shown) [Compound 211]
*A* condition not met

*Q* Quick check, polydispersity >= 0.07? CCCCCCCCCCCOC(=O)CCCCCN(CCO)CCN(CCCCCC(=O)OCC(CCCCCCCC)CCCCCCCC)C1CCCCC1 [Compound 45]
*A* condition not met

*Q* Quick check, polydispersity >= 0.07? CCCCCCCCCCCOC(=O)CCCCCN(CCN(CCO)CCOCCC(=O)OCC(CCCCCCCC)CCCCCCCC)C1CCCCC1 [Compound 115]
*A* condition not met

* * *

- assayText: Lipid nanoparticle size and polydispersity by dynamic light scattering
- Format: physicochemical
- condition: LNP of lipid/DSPC/cholesterol/PEG-lipid 50:10:38.5:1.5 encapsulating hEPO mRNA
// assign Fulfilled if polydispersity falls strictly below 0.05, else Not fulfilled (ties count as Not fulfilled)

*Q* For CCCCCCCCC(CCCCCCCC)COC(=O)/C=C/CN(CCO)CCN(CCCCCC(=O)OCC(CCCCCCCC)CCCCCCCC)C1CCC1 [Compound 63] , is the recorded polydispersity below the cut-off of 0.05?
*A* Fulfilled

*Q* For CCCCCCCCC(CCCCCCCC)CNC(=O)CCCCCN(CCO)CCN(CCCCCC(=O)NCC(CCCCCCCC)CCCCCCCC)C1CCCCCC1 [Compound 14] , is the recorded polydispersity below the cut-off of 0.05?
*A* Not fulfilled

*Q* For CCCCCCCCC(CCCCCC)CNC(=O)CCCCCN(CCO)CCN(CCCCC(COC(=O)CCCCCCC)COC(=O)CCCCCCC)C1CCCCCC1 (stereo not shown) [Compound 143] , is the recorded polydispersity below the cut-off of 0.05?
*A* Not fulfilled
